test system: PXR:RXRa (NR concentration 270 nM, RXRa partner concentration 90 nM); assay: PBM binding z-score (relative to random genomic background probes); higher = stronger binding; sequences stand for … in GC…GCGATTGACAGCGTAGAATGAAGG
Decision: PBM binding z-score compared against 1; not below it gives t, below it gives f.

Look over these answered cases.
>>> df
                             sequence  cat
0  CGTCCAAGGTCAGCAGGTCGGTGAAAGCGACGTG    t
1  AGAACGAGGGCAATGAGTCGATAGCACGGGTGGC    f
2  ATCGAAAGGTCGACGAGGTGATTATACACCGTTT    t
3  AGAACGAGGGGACGCTGAGTTGATAGCAGAGTAG    f
4  CCTACTGGGCCAAAAAGGTTATTGATGCCGATAA    f

Does the reported PBM binding z-score for `AGAATGCGGTTAAGATCAGGGAAACAGAATACAT` fall at or above the 1 mark?
f

Does the reported PBM binding z-score for `CGAACTAGGTCAATGACAGGACAGTGAATAGTAA` fall at or above the 1 mark?
t

Does the reported PBM binding z-score for `TAGCTTAGGTCAGATCGGGCCAGTATACGCTATA` fall at or above the 1 mark?
t

Does the reported PBM binding z-score for `CGTCCAAGGTCAATGCTTGGTCAGTGAAAGCATT` fall at or above the 1 mark?
t

Does the reported PBM binding z-score for `AGTCAAAGTTCACCTAGGTAACGTAAGATATGCT` fall at or above the 1 mark?
t

Does the reported PBM binding z-score for `GTACCAAGGTGAATAGGTCATTGATGAGTAGGCG` fall at or above the 1 mark?
t

Does the reported PBM binding z-score for `AGAACGAGGGCACGCTCAGTTGATAGCAGAGTAG` fall at or above the 1 mark?
f

====

Each entry below lists one item and its recorded PBM binding z-score value.
test system: VDR:RXRa (NR concentration 270 nM, RXRa partner concentration 90 nM); test: PBM binding z-score (relative to random genomic background probes); higher = stronger binding; sequences stand for … in GC…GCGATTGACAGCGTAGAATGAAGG
Answer with a number only.

In [3]: df
Out[3]:
                             sequence             quantity  readout_value
0  TCTGTTAGTTGATTAGGGCAACCGAAACAGCGGA  PBM binding z-score          0.452
1  AGAATAAGGTTATTAAGATCAGGGAATTGCGGTC  PBM binding z-score           1.95
2  GGATATAGGTAATACAAGGTGAAAGTCCGATTGT  PBM binding z-score           0.64

For reference, reported PBM binding z-score for `ACAGACAGGTGATGAAGGTAAATCAGGCTATCAT` stands at 0.133

For reference, reported PBM binding z-score for `TAGCCTAGGTCATGCGGACCAGTATAGTGTCGGC` stands at 1.99

For reference, reported PBM binding z-score for `TCTCTTAGTTGATTAGGGCAACCGAAACAGCGGA` stands at 0.558

For reference, reported PBM binding z-score for `CCTACTTGGCCATTCAGAGGTCATTGATCATATG` stands at 4.04

For reference, reported PBM binding z-score for `CCTAGTTGGTCAGGAGGTGACACACCGGATATGA` stands at 0.277
